Test system: panel of purified HLA DR molecules;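 further: competitive inhibition of radiolabeled probe peptide binding to purified HLA DR molecules, with inhibitory potency of unlabeled peptides taken as an approximation of affinity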
Type: binding, human
COND: Table V B) Correct Predictions; 12 DR molecules listed
READOUT_KIND: Total Alleles Bound

Recorded Total Alleles Bound (molecule CC[C@H](C)[C@H](NC(=O)[C@H](CO)NC(=O)[C@H](CO)NC(=O)[C@H](CC(N)=O)NC(=O)[C@@H](NC(=O)[C@@H](NC(=O)[C@H](CC(N)=O)NC(=O)[C@H](Cc1ccccc1)NC(=O)[C@@H](N)C(C)C)C(C)C)C(C)C)C(=O)NCC(=O)N[C@@H](CC(C)C)C(=O)N[C@H](C(=O)N[C@@H](CCSC)C(=O)N[C@H](C(=O)N[C@@H](CC(C)C)C(=O)O)C(C)C)[C@@H](C)CC [Peptide F107.23] ): 4

###

ASSAYED_SYSTEM: DRB4*0101 (DRw53) (Homo sapiens, UniProt P01903+P13762, G164S)
Construct: expressed in transfected cells; host or cells: L257.6 transfected fibroblasts
Assay type: binding
COND: read-out: DRw53 nM (In IC50 Format)
Ends that are not written are not given here.
READOUT_KIND: IC50 (nM)
Report as a plain number; the unit nM is understood.

Reported IC50 ( YARFQRQTTLKAAA-NH2 [Peptide 717.10] ) = 6.5

###

ASSAYED_SYSTEM: DRB1*1101 (DR5w11) (Homo sapiens, UniProt P01903+P01911, A100R/A169T/A87E/I96F/K41T/L162R/M171V/P40S/Q125H/Q178H/Q39Y/Q99D/R42S/S66Y/T262R/V115G/W38E)
Construct: used as sources of human HLA class II molecules; endogenous in cells; host or cells: SWEIG (EBV-transformed homozygous B cell line)
Sequence (P01903 26-254, other chains not shown): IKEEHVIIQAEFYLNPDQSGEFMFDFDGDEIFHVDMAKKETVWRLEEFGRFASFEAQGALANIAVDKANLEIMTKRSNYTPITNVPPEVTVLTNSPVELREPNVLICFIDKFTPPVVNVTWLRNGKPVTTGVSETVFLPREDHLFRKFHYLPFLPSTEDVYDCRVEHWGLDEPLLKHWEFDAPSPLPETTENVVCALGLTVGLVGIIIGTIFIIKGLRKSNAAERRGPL
ASSAY: Class II peptide-binding assay, DR5w11;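 further: competition by unlabeled test peptide against iodinated probe peptide binding to affinity-purified HLA-DR, class II amount titrated beforehand, half-maximal inhibitory concentration read as approximate Kd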
COND: Table V B) Correct Predictions; read-out: Binding Capacity (IC50% nM) DR5w11
Ends that are not written are not given here.
READOUT_KIND: IC50 (nM)
The figure you give is taken to be in nM; do not add the unit.

Query QEIDPLSYNYIPVNSN [Peptide 1136.55] yields IC50 of 4540

###

ASSAYED_SYSTEM: DRB10404 (DR4w14) (Homo sapiens, UniProt P01903+P01911, A100R/A169T/F76Y/I96L/K127E/L162R/M171V/N62H/P40V/Q125Y/R42H/S133A/S149N/S66Y/V209L/W38E)
Construct: used as sources of human HLA class II molecules; endogenous in cells; host or cells: BIN40 (EBV-transformed homozygous B cell line)
ASSAY: Class II peptide-binding assay, DR4w14;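 further: unlabeled peptides compete with a radiolabeled probe for binding to affinity-purified HLA-DR, neutral pH, class II amount titrated to bind a small fraction of label, IC50 approximates Kd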
COND: read-out: DR4w14 nM (In IC50 Format); purified HLA DR4w14
Square brackets hold non-standard residues; d marks the D form. Peptide text beside a SMILES is read from it.
Each item that follows carries a reported pIC50.
# pIC50: negative log10 of molar concentration; output just the value

Summary for this molecule, C[C@H](NC(=O)[C@H](C)NC(=O)[C@H](C)NC(=O)[C@H](Cc1ccc(O)cc1)NC(=O)[C@H](C)NC(=O)[C@@H](C)N)C(=O)N[C@@H](C)C(=O)N[C@H](C(=O)N[C@@H](C)C(=O)N[C@@H](CCCCN)C(=O)N[C@@H](C)C(=O)N[C@@H](C)C(=O)N[C@H](C)C(N)=O)[C@@H](C)O [Peptide 762.02] (H-[dA]AYAAAATAKAA[dA]-NH2) : pIC50 is 5.85

Proceeding to the next molecule to report its pIC50.
// pIC50 lookup, molecule = CC[C@H](C)[C@H](NC(=O)[C@H](C)NC(=O)CNC(=O)[C@H](Cc1ccccc1)NC(=O)[C@H](CC(N)=O)NC(=O)[C@H](CC(N)=O)NC(=O)[C@H](N)CO)C(=O)N[C@@H](CC(C)C)C(=O)N[C@@H](CO)C(=O)N[C@@H](CO)C(=O)N[C@H](C(=O)N[C@@H](CC(N)=O)C(=O)N[C@H](C(=O)NCC(N)=O)C(C)C)[C@@H](C)O [Peptide 735.05] (H-[dS]NNFGAILSSTNVG-NH2) , result: 6.42
